- Tested on: HEK-Blue TGFβ cell
- method_description: HEK-Blue TGFβ cellular reporter gene assay (SEAP readout)
- Assay type: cell-based
- measurement_context: HEK-Blue TGFβ cells stimulated with TGF-β, 22-23 h incubation, SEAP read at 630 nm
pIC50: −log10 of the molar value.
recorded_metric: pIC50

>>> numeric_readout("Cc1cc(Oc2ccnc(Nc3ccc(Cl)c(CCC(=O)O)c3)c2)c(-c2ccccn2)nc1C [Example 5]")
6.82
>>> numeric_readout("O=C(O)Cc1cccc(Nc2cc(Oc3cn(C4CC4)nc3C3CCOCC3)ccn2)c1 [Example 163]")
5.44
>>> numeric_readout("O=C(O)CCc1cccc(Nc2cc(Oc3cn(C4CC4)nc3C3CCOCC3)ccn2)c1 [Example 68]")
6.13
>>> numeric_readout("Cc1ccc(Oc2ccnc(Nc3ccc(F)c(CCC(=O)O)c3)c2)c(C)n1 [Example 36]")
6.74
>>> numeric_readout("Cc1ccc(Oc2ccnc(Nc3cccc(CCc4nn[nH]n4)c3)c2)c(-c2ccccn2)n1 [Example 55]")
6.70
>>> numeric_readout("Cc1ccc(Oc2ccnc(Nc3cccc(C(C)(C)CC(=O)O)c3)c2)c(-c2ccccc2)n1 [Example 110]")
7.52
>>> numeric_readout("COc1ccccc1-c1nc(C)ccc1Oc1ccnc(Nc2cccc(C(C)(C)C(=O)O)c2)c1 [Example 86]")
6.62
>>> numeric_readout("COc1ccc(Nc2cc(Oc3ccc(C)nc3-c3ccccn3)ccn2)cc1CCc1nn[nH]n1 [Example 184]")
6.48
>>> numeric_readout("CC(C)(C(=O)O)c1cccc(Nc2cc(Oc3cn(C4CC4)nc3C3CCOCC3)ccn2)c1 [Example 74]")
6.64
>>> numeric_readout("CC(C)n1cc(Oc2ccnc(Nc3cccc(C(C)(C)C(=O)O)c3)c2)c(-c2ccccc2)n1 [Example 124]")
6.72
>>> numeric_readout("CCc1cc(Oc2ccnc(Nc3cccc(C(C)(C)C(=O)O)c3)c2)c(-c2ccccc2)nc1C [Example 100]")
5.59
>>> numeric_readout("Cc1ccc(Oc2ccnc(Nc3cc(CCC(=O)O)ccc3F)c2)c(C)n1 [Example 39]")
6.59

* * *

- Test system: HEK-Blue TGFβ cell
- method_description: HEK-Blue TGFβ cellular reporter gene assay (SEAP readout)
- Type: cell-based
- measurement_context: HEK-Blue TGFβ cells stimulated with TGF-β, 22-23 h incubation, SEAP read at 630 nm
pIC50: −log10 of the molar value.
recorded_metric: pIC50

>>> numeric_readout("Cc1ccc(Oc2ccnc(Nc3cccc(CCc4nn[nH]n4)c3)c2)c(-c2cnn(C)c2)n1")
5.68
>>> numeric_readout("CC(C)(C(=O)O)c1cccc(Nc2cc(Oc3cn(C4CCC4)nc3C3CCOCC3)ccn2)c1")
6.51
>>> numeric_readout("c1ccc(-c2nn(C3CC3)cc2Oc2ccnc(Nc3cccc(Cc4nn[nH]n4)c3)c2)cc1")
6.96
>>> numeric_readout("CCc1ccc(Oc2ccnc(Nc3cccc(CCC(=O)O)c3)c2)c(-c2ccccn2)n1")
7.31
>>> numeric_readout("Cc1cc(Oc2ccnc(Nc3cccc(CCC(=O)O)c3F)c2)c(-c2ccccn2)nc1C")
6.66
>>> numeric_readout("Cc1cc(Oc2ccnc(Nc3ccc(Cl)c(CCc4nnn[nH]4)c3)c2)c(-c2ccccn2)nc1C")
6.92
>>> numeric_readout("Cc1ccc(Oc2ccnc(Nc3cccc(C(C)(C)C(=O)O)c3)c2)c(-c2ccc(C#N)cc2)n1")
6.70

* * *

- Tested on: HEK-Blue TGFβ cell
- method_description: HEK-Blue TGFβ cellular reporter gene assay (SEAP readout)
- Assay type: cell-based
- measurement_context: HEK-Blue TGFβ cells stimulated with TGF-β, 22-23 h incubation, SEAP read at 630 nm
pIC50: −log10 of the molar value.
recorded_metric: pIC50

>>> numeric_readout("O=C(O)CCc1cccc(Nc2cc(Oc3cn(C4CC4)nc3-c3ccccc3)ccn2)c1")
7.80
>>> numeric_readout("Cc1ccc(Oc2ccnc(Nc3cccc(CCc4nn[nH]n4)c3)c2)c(-c2ccncc2)n1")
5.19
>>> numeric_readout("Cc1cc(Oc2ccnc(Nc3cccc(CCc4nnn[nH]4)n3)c2)c(-c2ccccn2)nc1C")
6.46
>>> numeric_readout("Cc1ccc(Oc2ccnc(Nc3cccc(C(C)(C)c4nnn[nH]4)c3)c2)c(-c2ccccc2)n1")
7.10
>>> numeric_readout("CCc1ccc(Oc2ccnc(Nc3cccc(CCc4nn[nH]n4)c3)c2)c(C)n1")
6.89
>>> numeric_readout("Cc1ccc(Oc2ccnc(Nc3cccc(C(C)(C)C(=O)O)c3)c2)c(-c2ccc(F)cc2)n1")
7.74
>>> numeric_readout("Cc1cc(Oc2ccnc(Nc3cccc(C(C)(C)C(=O)O)c3)c2)c(-c2ccccn2)nc1C")
6.85

* * *

- Tested on: HEK-Blue TGFβ cell
- method_description: HEK-Blue TGFβ cellular reporter gene assay (SEAP readout)
- Format: cell-based
- measurement_context: HEK-Blue TGFβ cells stimulated with TGF-β, 22-23 h incubation, SEAP read at 630 nm
pIC50: −log10 of the molar value.
recorded_metric: pIC50

>>> numeric_readout("Cc1cc(Nc2cc(Oc3cn(C4CCC4)nc3-c3ccccc3)ccn2)cc(C(C)(C)C(=O)O)c1 [Example 172]")
6.92
>>> numeric_readout("Cc1cccc(-c2nc(C)ccc2Oc2ccnc(Nc3cccc(CCc4nn[nH]n4)c3)c2)n1 [Example 63]")
6.14
>>> numeric_readout("O=C(O)CCc1cccc(Nc2cc(Oc3cn(C4CCC4)nc3-c3ccccc3)ccn2)c1 [Example 173]")
7.59
>>> numeric_readout("Cc1ccc(Oc2ccnc(Nc3cccc(C(C)(C)C(=O)O)c3)c2)c(-c2cccc(F)c2)n1 [Example 90]")
7.62
>>> numeric_readout("Cc1cc(Cc2nn[nH]n2)cc(Nc2cc(Oc3cn(C4CC4)nc3C3CCOCC3)ccn2)c1 [Example 194]")
5.38
>>> numeric_readout("Cc1cc(Oc2ccnc(Nc3ccc(CCC(=O)O)cc3)c2)c(-c2ccccn2)nc1C [Example 2]")
6.64
>>> numeric_readout("Cc1nc(-c2ccccc2)c(Oc2ccnc(Nc3cccc(C(C)(C)C(=O)O)c3)c2)cc1C(C)C [Example 102]")
5.57

* * *

- Test system: HEK-Blue TGFβ cell
- method_description: HEK-Blue TGFβ cellular reporter gene assay (SEAP readout)
- Assay type: cell-based
- measurement_context: HEK-Blue TGFβ cells stimulated with TGF-β, 22-23 h incubation, SEAP read at 630 nm
The reader will find reported IC50 values listed item by item below.
recorded_metric: IC50 (nM)

>>> numeric_readout("CC(C)(C(=O)O)c1cccc(Nc2cc(Oc3cn(CC(F)F)nc3-c3ccccc3)ccn2)c1")
180
>>> numeric_readout("Cc1cc(Nc2cc(Oc3ccc(C)nc3-c3ccccc3)ccn2)cc(C(C)(C)C(=O)O)c1")
7
>>> numeric_readout("Cc1cc(Cc2nn[nH]n2)cc(Nc2cc(Oc3cn(C4CC4)nc3-c3ccccc3)ccn2)c1")
60
>>> numeric_readout("CC(C)(C(=O)O)c1cccc(Nc2cc(Oc3ccc(C4CC4)nc3-c3ccccc3)ccn2)c1")
130
>>> numeric_readout("Cc1ccc(Oc2ccnc(Nc3cccc(CCc4nn[nH]n4)c3)c2)c(C2CCOCC2)n1")
3690
>>> numeric_readout("CCc1nc(C)c(Oc2ccnc(Nc3cc(C)cc(CC(C)(C)C(=O)O)c3)c2)cc1C")
20
>>> numeric_readout("Cc1ccc(Oc2ccnc(Nc3cccc(C(C)(C)C(=O)O)c3)c2)c(-c2ccccc2Cl)n1")
110
>>> numeric_readout("Cc1cc(Oc2ccnc(Nc3cc(F)cc(CCc4nn[nH]n4)c3)c2)c(-c2ccccn2)nc1C")
170
>>> numeric_readout("Cc1cc(Oc2ccnc(Nc3cccc(CC(C)(C)c4nn[nH]n4)c3)c2)c(-c2ccccn2)nc1C")
150
>>> numeric_readout("CCc1ccc(Oc2ccnc(Nc3cccc(CCc4nn[nH]n4)c3)c2)c(-c2ccccn2)n1")
44
>>> numeric_readout("CCc1nc(C)c(Oc2ccnc(Nc3cccc(C(C)(C)C(=O)O)c3)c2)cc1C")
18
>>> numeric_readout("CCc1nc(-c2ccccn2)c(Oc2ccnc(Nc3cccc(C(C)(C)C(=O)O)c3)c2)cc1C")
44
>>> numeric_readout("Cc1ccc(Oc2ccnc(Nc3cc(CCc4nn[nH]n4)ccc3F)c2)c(C)n1")
420

* * *

- Test system: HEK-Blue TGFβ cell
- method_description: HEK-Blue TGFβ cellular reporter gene assay (SEAP readout)
- Type: cell-based
- measurement_context: HEK-Blue TGFβ cells stimulated with TGF-β, 22-23 h incubation, SEAP read at 630 nm
pIC50: −log10 of the molar value.
Think of 7 as a floor: if pIC50 stands on it or above, it is yes (1); beneath it, no (0).

>>> class_assignment("Cc1nc(-c2ccccn2)c(Oc2ccnc(Nc3cccc(CCc4nn[nH]n4)c3)c2)cc1C(C)C [Example 183]")
"no (0)"
>>> class_assignment("Cc1cc(Oc2ccnc(Nc3ccc(Cc4nnnn4CC(=O)O)cc3)c2)c(-c2ccccn2)nc1C [Example 35B]")
"no (0)"
>>> class_assignment("Cc1ccc(Oc2ccnc(Nc3ccc(Cl)c(CCc4nn[nH]n4)c3)c2)c(C)n1 [Example 50]")
"no (0)"
>>> class_assignment("CCc1ccc(Oc2ccnc(Nc3cc(C)cc(CC(C)(C)C(=O)O)c3)c2)c(C)n1 [Example 145]")
"yes (1)"
>>> class_assignment("Cc1ccc(Oc2ccnc(Nc3cccc(CCc4nn[nH]n4)c3F)c2)c(C)n1 [Example 46]")
"no (0)"
>>> class_assignment("Cc1ccc(Oc2ccnc(Nc3cccc(CCc4nn[nH]n4)c3)c2)c(-c2ncccc2C)n1 [Example 64]")
"no (0)"
>>> class_assignment("c1ccc(-c2nn(C3CC3)cc2Oc2ccnc(Nc3cccc(CCc4nn[nH]n4)c3)c2)cc1 [Example 197]")
"yes (1)"
>>> class_assignment("CCc1ccc(Oc2ccnc(Nc3cc(C)cc(CCC(=O)O)c3)c2)c(C)n1 [Example 147]")
"yes (1)"
>>> class_assignment("COc1cc(CCc2nn[nH]n2)cc(Nc2cc(Oc3cc(C)c(C)nc3-c3ccccn3)ccn2)c1 [Example 178]")
"no (0)"
>>> class_assignment("CC(C)c1ccc(Oc2ccnc(Nc3cccc(C(C)(C)C(=O)O)c3)c2)c(-c2ccccc2)n1 [Example 107]")
"no (0)"
>>> class_assignment("CCc1nc(C)c(Oc2ccnc(Nc3cccc(CC(C)(C)C(=O)O)c3)c2)cc1C [Example 151]")
"yes (1)"
>>> class_assignment("Cc1cc(Oc2ccnc(Nc3cccc(C(C)(C)c4nnn[nH]4)c3)c2)c(-c2ccccn2)nc1C [Example 18]")
"no (0)"
